Could you please report measured KD pH 5.5/pH 7.4 for the items listed next?
EXPERIMENTAL SYSTEM: T1, cynomolgus monkey serum albumin (cynomolgus monkey, UniProt A2V9Z4 25-608)
T1 construct: Immobilised on SPR chips; also called cynoSA; cynomolgus albumin
ASSAY: SPR Biacore 8K+ SCK, albumin on chip, ratio of KD
Numbers only.

Alb23 G33A/S101A (VHH, VHH alone) VHH: EVQLLESGGGLVQPGGSLRLSCAASGFTFRSFAMSWVRQAPGKGPEWVSSISGSGSDTLYADSVKGRFTISRDNSKNTLYLQMNSLRPEDTAVYYCTIGGALSRSSQGTLVTVSS = 0.42
Alb23 G99A (VHH, VHH alone) VHH: EVQLLESGGGLVQPGGSLRLSCAASGFTFRSFGMSWVRQAPGKGPEWVSSISGSGSDTLYADSVKGRFTISRDNSKNTLYLQMNSLRPEDTAVYYCTIAGSLSRSSQGTLVTVSS = 0.31

Below are 3 binders. Give each one its KD pH 5.5/pH 7.4.
1. Alb23 M34A (VHH, VHH alone) VHH: EVQLLESGGGLVQPGGSLRLSCAASGFTFRSFGASWVRQAPGKGPEWVSSISGSGSDTLYADSVKGRFTISRDNSKNTLYLQMNSLRPEDTAVYYCTIGGSLSRSSQGTLVTVSS
2. Alb23 L59A (VHH, VHH alone) VHH: EVQLLESGGGLVQPGGSLRLSCAASGFTFRSFGMSWVRQAPGKGPEWVSSISGSGSDTAYADSVKGRFTISRDNSKNTLYLQMNSLRPEDTAVYYCTIGGSLSRSSQGTLVTVSS
3. Alb23 G100A (VHH, VHH alone) VHH: EVQLLESGGGLVQPGGSLRLSCAASGFTFRSFGMSWVRQAPGKGPEWVSSISGSGSDTLYADSVKGRFTISRDNSKNTLYLQMNSLRPEDTAVYYCTIGASLSRSSQGTLVTVSS

[out]
1. 0.42
2. 0.46
3. 0.57

Where do these numbers come from? They come from patent US20260152573A1.
